# Tested on: Klebsiella pneumoniae
experimental.endpoint: MIC (µg/mL)
Write the answer as a number in µg/mL, unit excluded.

Would you please look over these solved cases?
NC[C@H]1O[C@H](O[C@H]2[C@H](OC(=O)Nc3ccccc3)[C@@H](OC(=O)Nc3ccccc3)[C@H](N)C[C@@H]2N)[C@H](N)[C@@H](OC(=O)Nc2ccccc2)[C@@H]1OC(=O)Nc1ccccc1.O=C(O)C(F)(F)F ... 64
NC[C@@H]1O[C@H](O[C@H]2[C@@H](OCc3ccccc3)[C@H](O[C@@H]3[C@@H](OCc4ccccc4)[C@H](N)C[C@H](N)[C@H]3O[C@H]3O[C@H](CN)[C@@H](OCc4ccccc4)[C@H](OCc4ccccc4)[C@H]3N)O[C@@H]2COCc2ccccc2)[C@H](N)[C@@H](OCc2ccccc2)[C@@H]1OCc1ccccc1.O=C(O)C(F)(F)F ... 8
NCC[C@H](OC(=O)Nc1ccccc1)C(=O)N[C@@H]1C[C@H](N)[C@@H](C[C@H]2O[C@H](CN)[C@@H](OC(=O)Nc3ccccc3)[C@H](OC(=O)Nc3ccccc3)[C@H]2OC(=O)Nc2ccccc2)[C@H](OC(=O)Nc2ccccc2)[C@H]1O[C@H]1O[C@H](COC(=O)Nc2ccccc2)[C@@H](OC(=O)Nc2ccccc2)[C@H](N)[C@H]1OC(=O)Cc1ccccc1.O=C(O)C(F)(F)F ... 256
NC[C@@H]1O[C@H](O[C@H]2[C@@H](OC(=O)Nc3ccc(Cl)cc3)[C@H](O[C@@H]3[C@@H](OC(=O)Nc4ccc(Cl)cc4)[C@H](N)C[C@H](N)[C@H]3O[C@H]3O[C@H](CN)[C@@H](OC(=O)Nc4ccc(Cl)cc4)[C@H](OC(=O)Nc4ccc(Cl)cc4)[C@H]3N)O[C@@H]2COC(=O)Nc2ccc(Cl)cc2)[C@H](N)[C@@H](OC(=O)Nc2ccc(Cl)cc2)[C@@H]1OC(=O)Nc1ccc(Cl)cc1.O=C(O)C(F)(F)F ... 256

Query compound follows.
Lab note: need MIC with Klebsiella pneumoniae for entry NC[C@@H]1O[C@@H](O[C@H]2[C@H](O)[C@@H](O[C@H]3O[C@H](CO)[C@@H](O)[C@H](N)[C@H]3O)[C@H](N)C[C@@H]2N)[C@@H](O)[C@H](O)[C@H]1O , please look it up.
1
